Below, each entry is listed alongside its reported %Inh.
Tested on: MKNK1;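 further: KINOMEscan kinase panel screen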
Conditions: concentration: 1 μM, replicates: in singlicate; n = 1
Give a bare numeral; the unit % is implied.

Known %Inh results, listed for orientation:
- COMPOUND: "CCn1c(-c2nonc2N)nc2c(C#CC(C)(C)O)ncc(OCCCCN)c21.O=C(O)C(F)(F)F.O=C(O)C(F)(F)F"
  %Inh / %: 0
- COMPOUND: "Cl.Cl.NCC(C(=O)Nc1cc(Br)c(-c2ccnc3[nH]ccc23)s1)c1ccccc1 (centres unmarked)"
  %Inh / %: 13
- COMPOUND: "Clc1ccc(-c2nn3ncccc3c2-c2ccnc(Nc3ccc4c(c3)OCCO4)n2)cc1"
  %Inh / %: 0
- COMPOUND: "c1ccc(Oc2ccc(Nc3ccnc4cc(-c5ccc(CNCCN6CCOCC6)o5)ccc34)cc2)nc1"
  %Inh / %: 0

Prompt line: Field: %Inh (MKNK1). Entry: CNC(=O)c1ccccc1Nc1nc(Nc2ccc(N3CCOCC3)cc2)ncc1Cl.Cl
Response line: 14

Prompt line: Field: %Inh (MKNK1). Entry: COc1cc(Nc2nccc(-c3c(-c4cccc(NC(=O)c5c(F)cccc5F)c4)nn4ccccc34)n2)cc(OC)c1OC
Response line: 7

Prompt line: Field: %Inh (MKNK1). Entry: Nc1ncc(-c2cccnc2)c2scc(-c3ccc4c(c3)CCN4C(=O)Cc3ccccc3)c12
Response line: 5

Prompt line: Field: %Inh (MKNK1). Entry: CC(C)(C)c1ccc2nccc(Nc3cccc(O)c3)c2c1
Response line: 47

Data provenance: paper PMC5540273
